pIC50: −log10 of the molar value.
The following are reported pIC50 results, target or system hemolysin alpha from Staphylococcus aureus (Staphylococcus aureus, UniProt P09616).

1) Cc1cc2[nH]c(=O)c(=O)[nH]c2nc1S(=O)(=O)Nc1ccc(-c2ccc(F)cc2)c(Cl)c1 [Compound 9] :: > 7.52
2) Cc1cc2[nH]c(=O)c(=O)[nH]c2nc1S(=O)(=O)Nc1ccc(-c2ccc3oc(C4CC4)nc3c2)c(Cl)c1 [Compound 41] :: > 7.52
3) Cc1cc2[nH]c(=O)c(=O)[nH]c2nc1S(=O)(=O)Nc1ccc(C2CCC2)cc1 [Compound 21] :: > 7.52

Data request, read-out pIC50, for Cc1cc2[nH]c(=O)c(=O)[nH]c2nc1S(=O)(=O)Nc1cnc(-c2ccc3c(c2)NC(=O)CO3)c(Cl)c1 [Compound 36]
7.00 to 7.52

What do we get for Cc1nc2cc(-c3ccc(NS(=O)(=O)c4nc5[nH]c(=O)c(=O)[nH]c5cc4C)cc3C)ccc2o1 [Compound 40] ?
> 7.52

What do we get for Cc1cc2[nH]c(=O)c(=O)[nH]c2nc1S(=O)(=O)Nc1ccc(-c2cncc(Cl)c2)c(Cl)c1 [Compound 11] ?
6.00 to 7.00

Measured values drawn from patent US20260217703A1 for this set.
